Molecular target: FXR LBD, GST (Homo sapiens)
Construct: FXR LBD, GST; purchased Invitrogen PV4834
Test: FXR Binding Assay (TR-FRET, Fluorescein-SRC2-2 coactivator peptide)
Conditions: % Activity relative to positive control; read-out: Pct Effect (Emax %)
Entries and their Emax
Report as a plain number; the unit % is understood.

Worked examples, 2 compounds total:
>  <compound>
Cn1cc(C(=O)O)c2ccc(N3C[C@H]4C[C@@H]3CN4CCc3c(-c4c(Cl)cccc4Cl)noc3C3CC3)cc21

>  <reading unit>
%

>  <experimental value>
132

$$$$
>  <compound>
Cn1cc(C(=O)O)c2c(F)cc(N3CC4CC(C3)C4OCc3c(-c4c(Cl)cccc4Cl)noc3C3CC3)cc21 (stereo not drawn)

>  <reading unit>
%

>  <experimental value>
106

$$$$

Could you now consider this next compound?
What Emax value was documented for this compound, CC1CC(c2ccc3c(C(=O)O)cn(C)c3c2)CCN1CCc1c(-c2c(Cl)cccc2Cl)noc1C1CC1 (stereo not drawn) ?
180

----------
Molecular target: FXR LBD, GST (Homo sapiens, UniProt Q96RI1)
Construct: FXR LBD, GST
Assay: FXR Binding Assay (TR-FRET, Fluorescein-SRC2-2 coactivator peptide)
Details: TR-FRET FXR LBD coactivator recruitment
Entries and their pEC50
pEC50 here: minus log base 10 of the concentration, concentration in moles per litre.

Worked examples, 3 molecules total:
>  <molecule>
Cn1cc(C(=O)O)c2ccc(N3CCN(CCc4c(-c5ccccc5OC(F)(F)F)noc4C4CC4)CC3)cc21

>  <pEC50>
6.35

$$$$
>  <molecule>
CC1CN(CCc2c(-c3c(Cl)cccc3Cl)noc2C2CC2)CCN1c1ccc(CC(=O)O)cc1 (stereo not shown)

>  <pEC50>
5.82

$$$$
>  <molecule>
CC1CC(c2ccc3c(C(=O)O)cn(C)c3c2)CCN1CCc1c(-c2c(Cl)cccc2Cl)noc1C1CC1 (stereo not shown)

>  <pEC50>
6.42

$$$$

Enter reported pEC50 observed with FXR LBD, GST (Homo sapiens, UniProt Q96RI1) for "CN(Cc1c(-c2c(Cl)cccc2Cl)noc1C1CC1)C1CCN(c2ccc3c(C(=O)O)cn(C)c3c2)CC1"
6.30

Enter reported pEC50 observed with FXR LBD, GST (Homo sapiens, UniProt Q96RI1) for "COc1cccc(Cl)c1-c1noc(C2CC2)c1CCN1CCN(c2ccc3c(C(=O)O)cn(C)c3c2)CC1"
6.05

Enter reported pEC50 observed with FXR LBD, GST (Homo sapiens, UniProt Q96RI1) for "O=C(O)c1ccc2cc(N3CCN(CCc4c(-c5c(Cl)cccc5Cl)noc4C4CC4)CC3)ccc2n1"
6.93

Enter reported pEC50 observed with FXR LBD, GST (Homo sapiens, UniProt Q96RI1) for "O=C(O)c1cc(F)c2nc(N3CCN(CCc4c(-c5ccccc5OC(F)(F)F)noc4C4CC4)CC3)sc2c1"
6.53

----------
Molecular target: FXR LBD, GST (Homo sapiens)
Construct: FXR LBD, GST
Experiment: FXR Binding Assay (TR-FRET, Fluorescein-SRC2-2 coactivator peptide)
Conditions: TR-FRET FXR LBD coactivator recruitment
Experimental: The interaction between the present compounds and FXR are evaluated by Time-Resolved Fluorescence Resonance Energy Transfer (TR-FRET) competition assay. […] In contrast to standard FRET, TR-FRET unites time-resolved fluorescence (TRF) and the FRET principle, TRF use a long-lifetime lanthanide chelate as the donor species, while lanthanide chelates are unique in that their excited-state lifetime can be on the order of a millisecond or longer. […]
Entries and their pEC50
pEC50 here: minus log base 10 of the concentration, concentration in moles per litre.

Worked examples, 10 molecules total:
>  <molecule>
C[C@@H]1CN(c2ccc3c(C(=O)O)cn(C)c3c2)CCN1CCc1c(-c2c(Cl)cccc2Cl)noc1C1CC1 [Example I35]

>  <tgt>
FXR LBD, GST (Homo sapiens)

>  <pEC50>
7.01

$$$$
>  <molecule>
CC1CCN(c2ccc3c(C(=O)O)cn(C)c3c2)CCN1CCc1c(-c2c(Cl)cccc2Cl)noc1C1CC1 (stereo not shown) [Example I55]

>  <tgt>
FXR LBD, GST (Homo sapiens)

>  <pEC50>
5.56

$$$$
>  <molecule>
Cn1cc(C(=O)O)c2ccc(N3CCN(CCc4c(-c5ccccc5Cl)noc4C4CC4)CC3)cc21 [Example I9]

>  <tgt>
FXR LBD, GST (Homo sapiens)

>  <pEC50>
5.91

$$$$
>  <molecule>
CC(Cc1c(-c2c(Cl)cccc2Cl)noc1C1CC1)N1CCN(c2ccc3c(C(=O)O)cn(C)c3c2)CC1 (stereo not shown) [Example I23]

>  <tgt>
FXR LBD, GST (Homo sapiens)

>  <pEC50>
5.86

$$$$
>  <molecule>
Cn1cc(C(=O)O)c2ccc(N3CCN(C(=O)Cc4c(-c5c(Cl)cccc5Cl)noc4C4CC4)CC3)cc21 [Example I2]

>  <tgt>
FXR LBD, GST (Homo sapiens)

>  <pEC50>
5.29

$$$$
>  <molecule>
Cn1cc(C(=O)O)c2ccc(N3CC4CCC(C3)N4CCc3c(-c4c(Cl)cccc4Cl)noc3C3CC3)cc21 [Example I41]

>  <tgt>
FXR LBD, GST (Homo sapiens)

>  <pEC50>
6.70

$$$$
>  <molecule>
Cn1cc(C(=O)O)c2ccc(N3CCN(CCc4c(-c5c(Cl)cccc5Cl)noc4C4CC4)CC3)cc21 [Example I1]

>  <tgt>
FXR LBD, GST (Homo sapiens)

>  <pEC50>
7.24

$$$$
>  <molecule>
O=C(O)c1ccc2nc(N3CCN(CCc4c(-c5c(Cl)cccc5Cl)noc4C4CC4)CC3)sc2c1 [Example I4]

>  <tgt>
FXR LBD, GST (Homo sapiens)

>  <pEC50>
6.61

$$$$
>  <molecule>
CC1CN(c2ccc3nc(C(=O)O)ccc3c2)CCN1CCc1c(-c2c(Cl)cccc2Cl)noc1C1CC1 (stereo not shown) [Example I52]

>  <tgt>
FXR LBD, GST (Homo sapiens)

>  <pEC50>
6.68

$$$$
>  <molecule>
Cn1cc(C(=O)O)c2ccc(N3C4CCC3CN(CCc3c(-c5c(Cl)cccc5Cl)noc3C3CC3)C4)cc21 [Example I30]

>  <tgt>
FXR LBD, GST (Homo sapiens)

>  <pEC50>
7.22

$$$$

Could you now consider this next molecule?
What pEC50 value was documented for this molecule, Cc1onc(-c2c(Cl)cccc2Cl)c1CCN1CCN(c2ccc3c(C(=O)O)cn(C)c3c2)CC1 [Example I27] ?
6.34

----------
Target: FXR LBD, GST (Homo sapiens)
Construct: FXR LBD, GST; purchased Invitrogen PV4834
Sequence (Q96RI1 262-486 limits assumed): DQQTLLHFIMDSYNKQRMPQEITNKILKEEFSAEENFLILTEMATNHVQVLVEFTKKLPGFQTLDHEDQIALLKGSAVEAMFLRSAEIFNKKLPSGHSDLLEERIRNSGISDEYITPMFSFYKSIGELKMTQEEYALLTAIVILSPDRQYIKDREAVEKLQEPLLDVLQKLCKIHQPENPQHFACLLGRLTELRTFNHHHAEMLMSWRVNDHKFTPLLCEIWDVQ
Assay: FXR Binding Assay (TR-FRET, Fluorescein-SRC2-2 coactivator peptide)
Details: % Activity relative to positive control; read-out: Pct Effect (Emax %)
Experimental: The interaction between the present compounds and FXR are evaluated by Time-Resolved Fluorescence Resonance Energy Transfer (TR-FRET) competition assay. […] In contrast to standard FRET, TR-FRET unites time-resolved fluorescence (TRF) and the FRET principle, TRF use a long-lifetime lanthanide chelate as the donor species, while lanthanide chelates are unique in that their excited-state lifetime can be on the order of a millisecond or longer. […]
metric name: Emax (%)
Report as a plain number; the unit % is understood.

Worked examples, 3 compounds total:
>  <compound>
Cn1cc(C(=O)O)c2ccc(N3CC4CC(C3)C4OCc3c(-c4c(Cl)cccc4Cl)noc3C3CC3)cc21 (stereo not shown)

>  <reading unit>
%

>  <Emax>
67.7

$$$$
>  <compound>
O=C(O)c1ccc2nc(N3C4CCC3CN(CCc3c(-c5ccccc5OC(F)(F)F)noc3C3CC3)C4)sc2c1

>  <reading unit>
%

>  <Emax>
41.5

$$$$
>  <compound>
Cn1cc(C(=O)O)c2ccc(N3CCCN(CCc4c(-c5c(Cl)cccc5Cl)noc4C4CC4)CC3)cc21

>  <reading unit>
%

>  <Emax>
98.1

$$$$

What Emax value was documented for this compound, "C[C@@H]1CN(CCc2c(-c3c(Cl)cccc3Cl)noc2C2CC2)CCN1c1ccc2c(C(=O)O)cn(C)c2c1" ?
131

What Emax value was documented for this compound, CC(Cc1c(-c2c(Cl)cccc2Cl)noc1C1CC1)N1CCN(c2ccc3c(C(=O)O)cn(C)c3c2)CC1 (stereo not shown) ?
35.7

What Emax value was documented for this compound, "Cn1cc(C(=O)O)c2ccc(N3CCN(CCc4c(-c5ccccc5F)noc4C4CC4)CC3)cc21" ?
104

What Emax value was documented for this compound, "Cc1onc(-c2c(Cl)cccc2Cl)c1CCN1CCN(c2ccc3c(C(=O)O)cn(C)c3c2)CC1" ?
91.1
